TEST_SYSTEM: Voltage-gated potassium channel subunit beta-2 (Rattus norvegicus)
PROCEDURE_TEXT: enhancers of rat Kvbeta2 NADPH turnover – biochemical, NADPH fluorescence, primary screen (AID 623);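 note: fluorescence intensity change per second fitted from 20 to 320 s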
CONDITION_SUMMARY: Recombinant KvBeta, NADPH fluorescence decrease slope, 10 min; at 10 µM; active compounds read low
Active and inactive are the calls of the source.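 Rule for the calls: active = NADPH fluorescence slope more negative than the mean of all samples by about 3 SD, 99.7% confidence; inactive = the rest.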
MEASURED_PARAMETER: NADPH fluorescence slope

-- ask If you can, please state the reported NADPH fluorescence slope value of Cc1cc(=O)[nH]c(=S)n1-c1ccccc1 .
-- reply -3e-05 (inactive)

Please state NADPH fluorescence slope for every compound in the list that follows.
1. COc1ccc(CN(CC(=O)NCC2CCCO2)C(=O)CNS(=O)(=O)c2ccc(C)cc2)cc1 (stereo unspecified)
2. COc1ccc(C)cc1NC(=O)C1CCN(S(=O)(=O)c2cccc3cccnc23)CC1
3. Cc1cc(C(=O)CN2C(=O)c3ccccc3C2=O)c(C)n1Cc1cccs1
4. Cc1ccnc(NC(=O)CCC(=O)N(CC(=O)NC(C)(C)C)C2CCCC2)c1
5. Cc1nn(-c2ccccc2)c2sc(C(=O)N3CCOCC3)cc12

-- reply
1. -3.8e-05 (inactive)
2. -4.1e-05 (inactive)
3. -0.000116 (inactive)
4. -1.4e-05 (inactive)
5. 1.4e-05 (inactive)

Please state NADPH fluorescence slope for every compound in the list that follows.
1. CC12CN3CC(C)(CN(C1)C3c1ccc(Cl)cc1Cl)C2=O (stereo unspecified)
2. COc1ccc(N2CCN(Cc3nc4c(c(=O)[nH]c(=O)n4C)n3CC(C)=O)CC2)cc1
3. O=C(Nc1cnccn1)c1cccs1
4. CCn1cc(C(=O)NCC2CCCO2)c(=O)c2cc(S(=O)(=O)N(C)C3CCCCC3)ccc21 (stereo unspecified)
5. CCN(C(=O)CCc1nc(-c2ccccc2F)no1)c1cc(OC)ccc1OC
6. CCOC(=O)c1ccc2ncc(C(=O)OCC)c(NCCN(C)C)c2c1
7. CCOC(=O)Cc1csc(/C(=N/O)C(N)=O)n1

-- reply
1: -1.9e-05 (inactive); 2: -2.9e-05 (inactive); 3: -2.8e-05 (inactive); 4: -3.4e-05 (inactive); 5: 1.9e-05 (inactive); 6: -3.1e-05 (inactive); 7: -9.9e-05 (inactive)

Please state NADPH fluorescence slope for every compound in the list that follows.
1. O=C1C(C=NCCCn2ccnc2)=C(O)c2ccccc21
2. C/C(=C\c1ccco1)C1C(C#N)=C(N)OC2=C1C(=O)CC(C)(C)C2 (stereo unspecified)

-- reply
-2.7e-05 (inactive)
-6.3e-05 (inactive)
